experiment: chemical genetic growth profiling, strain panel (AID 1159580);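 also: tested at 20 µM; growth read once vehicle control cultures reached saturation at 30 °C; 1 = growth at the plate median or of vehicle wells; lower values mean less growth of the strain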; conditions: S. cerevisiae deletion strains, growth OD, locus YLR221C, strain rsa3, stronger effect = lower value
Screen size: about 5,500 compounds; about 2,000 (36%) were called active. Inconclusive results (about 18%) are left out. Some of the results follow.

{"columns": ["molecule", "normalized growth"],
 "data": [
  ["COc1cccc2c1cc([N+](=O)[O-])c1c(C(=O)O)cc3c(c12)OCO3", 1.02],
  ["CCOC(=O)C1C(C=C(C)C)C1(C)C (centres undefined)", 1.01],
  ["COc1ccc(-c2cc(=O)c3ccccc3o2)cc1OC", 0.872],
  ["CC(C)Oc1ccc2c(=O)cc(-c3ccccc3)oc2c1", 0.895]
]}
